Recorded values, source patent US20240016931A1.

Target: T1, His-tagged human TSLP antigen (huTSLP-his) (human)
T1 construct: Secreted from HEK293E and purified on nickel; whole entry named; also called Human TSLP-his
Assay: ELISA, coated huTSLP-his;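 further: binding of antibodies to plate-bound TSLP read as absorbance at 450 nm after TMB colour development, EC50 derived from binding curves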
measured-parameter: pEC50
// pEC50 here means minus log10 of the molar concentration (mol/L)

{"binder": "hu3-06 (antibody, human IgG1, kappa, V domains shown, IgG1-YTE, kappa) VH: EVQLVQSGAEVKKPGASVKVSCKASGYTFTDDYMNWVRQAPGQRLEWMGIISPYNGGTSYNQKFKGRVTLTVDKSASTAYMELSSLRSEDTAVYYCAREDYDYDGYAMDHWGQGTTVTVSS VL: EIVLTQSPATLSLSPGERATLSCRASSSVSYMHWYQQKPGQAPRPWIYATSNLASGVPARFSGSGSGTDYTLTISRLEPEDFAVYYCQQWSSNRTFGGGTKVEIKR", "pEC50": 9.23}

Could you now look at the following binder, please?
[Q] Any idea what its pEC50 is? The binder is Ch179 (antibody, human IgG1, kappa, V domains shown, murine variable regions on human IgG1-YTE / kappa; also called chimeric antibody corresponding to mab179) VH: QVQLQQSGAELVRPGTSVKVSCKASGYAFTNYLIEWVKQRPGQGLEWIGVIDPGNGDTNYNENFKGKATLTADKSSSTAYIELSRLTSEDSAVYFCAREDNTGTAFDYWGQGTTLTVSS VL: SIVMTQTPKFLLVSAGDRVTISCKASQSVSSDVTWYQQKPGQSPKLLIYYVSNHYTGVPDRFTGSGYGTDFTFTISSVQAEDLAVYFCQQHHRFPLTFGAGTKLELKR
[A] 9.69
